STUDY TARGET: HDAC8 (Homo sapiens)
Sequence (Q9BY41 whole entry): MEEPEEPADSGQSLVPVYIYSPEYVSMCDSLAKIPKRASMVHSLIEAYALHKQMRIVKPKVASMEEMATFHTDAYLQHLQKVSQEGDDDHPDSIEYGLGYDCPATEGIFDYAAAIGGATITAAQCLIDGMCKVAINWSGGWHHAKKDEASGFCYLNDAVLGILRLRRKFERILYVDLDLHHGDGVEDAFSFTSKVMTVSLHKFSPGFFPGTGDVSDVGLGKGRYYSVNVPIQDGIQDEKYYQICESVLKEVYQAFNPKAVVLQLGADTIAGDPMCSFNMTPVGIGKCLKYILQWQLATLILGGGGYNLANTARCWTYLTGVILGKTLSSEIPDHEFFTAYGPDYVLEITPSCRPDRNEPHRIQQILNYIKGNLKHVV
PROTOCOL NOTES: HDAC8 activity assay (fluorometric, Sigma CS1010, Boc-Lys(Ac)-AMC)
Type: biochemical
MEASUREMENT CONDITIONS: read-out: HDAC-8 (IC50 in nM)
READOUT TYPE: IC50 (nM)

[a] COc1cccc(-c2nc(CNc3ccccc3SCC(N)=O)cs2)c1 [SD-01]
[b] CONC(=O)NCc1ccc2cc(OC)ccc2c1 [SD-05]
### Prompt Lower value of IC50 belongs to which: a or b ? Give the label of your selection.
### Response a

---

STUDY TARGET: HDAC6 (Homo sapiens, UniProt Q9UBN7)
Sequence (Q9UBN7 whole entry): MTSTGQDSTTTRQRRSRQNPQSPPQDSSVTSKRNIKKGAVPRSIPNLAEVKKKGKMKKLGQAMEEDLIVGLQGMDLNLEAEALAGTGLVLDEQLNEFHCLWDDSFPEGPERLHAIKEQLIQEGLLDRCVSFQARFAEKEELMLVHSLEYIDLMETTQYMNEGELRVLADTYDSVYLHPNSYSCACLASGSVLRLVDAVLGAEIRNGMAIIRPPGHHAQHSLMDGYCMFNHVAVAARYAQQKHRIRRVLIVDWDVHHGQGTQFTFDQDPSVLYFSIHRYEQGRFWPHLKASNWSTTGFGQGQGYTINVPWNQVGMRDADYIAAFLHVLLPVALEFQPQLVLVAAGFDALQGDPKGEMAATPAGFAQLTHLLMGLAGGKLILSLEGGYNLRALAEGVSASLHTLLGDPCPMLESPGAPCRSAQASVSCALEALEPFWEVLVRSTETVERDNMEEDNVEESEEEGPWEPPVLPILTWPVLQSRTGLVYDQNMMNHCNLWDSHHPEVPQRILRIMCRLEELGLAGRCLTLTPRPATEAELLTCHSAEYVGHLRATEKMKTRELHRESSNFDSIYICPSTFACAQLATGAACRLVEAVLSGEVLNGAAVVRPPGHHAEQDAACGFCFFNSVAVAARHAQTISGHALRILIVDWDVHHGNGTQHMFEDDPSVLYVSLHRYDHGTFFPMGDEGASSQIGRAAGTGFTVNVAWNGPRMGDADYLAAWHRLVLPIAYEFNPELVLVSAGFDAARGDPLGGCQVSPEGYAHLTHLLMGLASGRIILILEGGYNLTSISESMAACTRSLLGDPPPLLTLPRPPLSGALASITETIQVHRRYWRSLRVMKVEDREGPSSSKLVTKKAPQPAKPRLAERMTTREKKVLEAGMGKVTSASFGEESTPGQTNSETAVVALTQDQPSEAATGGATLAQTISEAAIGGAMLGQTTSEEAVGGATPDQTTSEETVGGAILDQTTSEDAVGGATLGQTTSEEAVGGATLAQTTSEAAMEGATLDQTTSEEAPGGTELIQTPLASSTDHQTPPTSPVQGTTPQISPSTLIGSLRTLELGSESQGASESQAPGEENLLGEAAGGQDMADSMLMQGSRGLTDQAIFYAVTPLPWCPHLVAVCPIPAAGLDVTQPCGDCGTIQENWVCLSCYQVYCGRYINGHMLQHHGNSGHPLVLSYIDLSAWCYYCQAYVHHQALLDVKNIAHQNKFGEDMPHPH
PROTOCOL NOTES: HDAC6 activity assay (fluorometric, Sigma CS1010, Boc-Lys(Ac)-AMC)
Assay type: biochemical
MEASUREMENT CONDITIONS: read-out: HDAC-6 (IC50 in nM)
READOUT TYPE: IC50

Some solved entries appear below for comparison.
COC(=O)c1ccc(Oc2coc3cc(OCC(N)=O)ccc3c2=O)cc1
> 100 nM
NC(=O)Cc1nc(-c2cc3cc(Cl)ccc3o2)cs1
> 100 nM

### Prompt Read off the recorded IC50 for `CONC(=O)NCc1ccc2cc(OC)ccc2c1`
### Response 30.9 nM

### Prompt Read off the recorded IC50 for `COc1cccc(-c2nc(CNc3ccccc3SCC(N)=O)cs2)c1`
### Response > 100 nM
